System Name: COX-2 (Homo sapiens, UniProt P35354)
Assay Comment: COX-2 enzyme activity in human whole blood (LPS induced, thromboxane B2 EIA)
Assay type: cell-based
Parameters: Human blood (≈50 mL) from male or female donors who had not received any aspirin or NSAIDs for 14 days; endogenous in cells; host or cells: human whole blood from donors, LPS-induced
Condition Description: test compound at 10 μM
Observation Type: COX-2 Inhibition (% at 10 μM) (%)
Respond with the bare value in %.

CCOC(=O)C1(C(=O)OCC)Oc2cc(Cc3cc(F)cc(F)c3)c(-c3ccc(S(C)(=O)=O)cc3)cc2O1 [Example 17f] ... 25

Please look at the following compound next.
Req: So what's the measured COX-2 Inhibition (% at 10 μM) for this one? CS(=O)(=O)c1ccc(-c2cc3c(cc2CC2CCCCC2)OCO3)cc1
Resp: 90

###

System Name: COX-2 (Homo sapiens)
Sequence (P35354 18-604): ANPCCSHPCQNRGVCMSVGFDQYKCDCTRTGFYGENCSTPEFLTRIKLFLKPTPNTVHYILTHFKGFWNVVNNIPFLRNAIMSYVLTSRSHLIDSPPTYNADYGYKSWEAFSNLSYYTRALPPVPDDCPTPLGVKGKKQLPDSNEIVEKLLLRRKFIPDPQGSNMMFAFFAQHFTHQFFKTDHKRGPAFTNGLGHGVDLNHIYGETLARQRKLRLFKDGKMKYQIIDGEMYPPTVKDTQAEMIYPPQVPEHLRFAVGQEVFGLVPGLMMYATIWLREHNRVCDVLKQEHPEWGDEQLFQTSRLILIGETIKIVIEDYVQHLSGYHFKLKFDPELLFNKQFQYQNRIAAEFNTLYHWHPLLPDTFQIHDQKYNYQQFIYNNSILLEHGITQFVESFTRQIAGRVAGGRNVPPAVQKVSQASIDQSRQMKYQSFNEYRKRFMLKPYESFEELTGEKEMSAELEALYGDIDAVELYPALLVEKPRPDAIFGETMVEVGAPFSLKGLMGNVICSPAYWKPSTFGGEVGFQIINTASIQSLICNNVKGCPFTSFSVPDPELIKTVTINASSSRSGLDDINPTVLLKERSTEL
Assay Comment: COX-2 enzyme activity in human whole blood (LPS induced, thromboxane B2 EIA)
Type: cell-based
Set-up: Human blood (≈50 mL) from male or female donors who had not received any aspirin or NSAIDs for 14 days; endogenous in cells; host or cells: human whole blood from donors, LPS-induced
Condition Description: test compound at 10 μM
Overview of recorded COX-2 Inhibition (% at 10 μM) for various compounds
Respond with the bare value in %.

CS(=O)(=O)c1ccc(-c2cc3c(cc2C(=O)c2ccccc2)OCO3)cc1 ... 60
CS(=O)(=O)c1ccc(-c2cc3c(cc2C(=O)C2CCCCC2)OCO3)cc1 ... 85
CCOC(=O)/C(C)=C/c1cc2c(cc1-c1ccc(S(C)(=O)=O)cc1)OCO2 ... 35
CS(=O)(=O)c1ccc(-c2cc3c(cc2Cc2cc(F)cc(F)c2)OC(C(=O)NCCO[N+](=O)[O-])CO3)cc1 (centres unmarked) [Example 18d] ... 40
CS(=O)(=O)c1ccc(-c2cc3c(cc2CC2CCCCCC2)OCO3)cc1 [Example 11c] ... 80

Req: So what's the measured COX-2 Inhibition (% at 10 μM) for this one? C/C(=C\c1cc2c(cc1-c1ccc(S(C)(=O)=O)cc1)OCO2)CO
Resp: 10

Req: So what's the measured COX-2 Inhibition (% at 10 μM) for this one? CS(=O)(=O)c1ccc(-c2cc(O)c(O)cc2C(=O)c2cc(F)cc(F)c2)cc1 [Example 17h]
Resp: 55

Req: So what's the measured COX-2 Inhibition (% at 10 μM) for this one? CS(=O)(=O)c1ccc(-c2cc3c(cc2C(=O)c2cc(F)cc(F)c2)OCO3)cc1
Resp: 100

###

System Name: COX-2 (Homo sapiens, UniProt P35354)
Sequence (P35354 18-604): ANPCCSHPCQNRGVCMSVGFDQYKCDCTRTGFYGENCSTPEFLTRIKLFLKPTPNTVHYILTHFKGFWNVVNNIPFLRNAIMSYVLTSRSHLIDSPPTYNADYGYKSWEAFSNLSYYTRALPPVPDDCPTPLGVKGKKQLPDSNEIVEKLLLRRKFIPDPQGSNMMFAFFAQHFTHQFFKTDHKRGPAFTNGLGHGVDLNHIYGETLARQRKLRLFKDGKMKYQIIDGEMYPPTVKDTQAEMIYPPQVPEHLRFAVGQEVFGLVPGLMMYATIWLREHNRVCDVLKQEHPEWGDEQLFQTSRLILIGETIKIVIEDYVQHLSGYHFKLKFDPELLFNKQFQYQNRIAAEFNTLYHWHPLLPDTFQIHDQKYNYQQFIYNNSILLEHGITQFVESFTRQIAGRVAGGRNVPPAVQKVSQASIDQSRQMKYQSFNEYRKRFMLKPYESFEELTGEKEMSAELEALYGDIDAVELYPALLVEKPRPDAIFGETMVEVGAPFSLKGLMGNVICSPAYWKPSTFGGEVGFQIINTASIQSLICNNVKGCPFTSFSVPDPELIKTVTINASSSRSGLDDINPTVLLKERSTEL
Assay Comment: Human COX-2 enzyme activity (COX Inhibitor Screening Assay, prostaglandin EIA)
Assay type: biochemical
Design: purchased Cayman Chemical
Condition Description: test compound at 10 μM
Overview of recorded COX-2 Inhibition (% at 10 μM) for various compounds
Reply with the number and its unit after it.

CS(=O)(=O)c1ccc(-c2cc3c(cc2C(=O)c2cccnc2)OCO3)cc1 ... 20%
CS(=O)(=O)c1ccc(-c2cc3c(cc2CC2CCCC2)OCO3)cc1 [Example 10b] ... 70%
CS(=O)(=O)c1ccc(-c2cc3c(cc2Cc2cccnc2)OCO3)cc1 ... 65%
CS(=O)(=O)c1ccc(-c2cc3c(cc2CN2CCCC(CO[N+](=O)[O-])C2)OCO3)cc1 (stereo not shown) ... 80%
CS(=O)(=O)c1ccc(-c2cc3c(cc2CN2CCCC(CO)C2)OCO3)cc1 (stereo not shown) ... 30%
CS(=O)(=O)c1ccc(-c2cc3c(cc2C(=O)c2ccccc2)OCO3)cc1 ... 90%
CS(=O)(=O)c1ccc(-c2cc3c(cc2Cc2cc(F)cc(F)c2)OCO3)cc1 [Example 15c] ... 90%
CS(=O)(=O)c1ccc(-c2cc3c(cc2C=C2CCCC2)OCO3)cc1 [Example 10a] ... 100%
CS(=O)(=O)c1ccc(-c2cc3c(cc2CN2CCCCC2=O)OCO3)cc1 ... 90%

Req: So what's the measured COX-2 Inhibition (% at 10 μM) for this one? CS(=O)(=O)c1ccc(-c2cc3c(cc2CC2CCCCC2)OCO3)cc1
Resp: 100%

###

Overview of recorded COX-2 Inhibition (% at 10 μM) for various compounds
System Name: UniProtKB P35354
Assay Comment: COX-2 enzyme activity in human whole blood (LPS induced, thromboxane B2 EIA)
Type: cell-based
Parameters: Human blood (≈50 mL) from male or female donors who had not received any aspirin or NSAIDs for 14 days; endogenous in cells; host or cells: human whole blood from donors, LPS-induced
Condition Description: test compound at 10 μM
Method: Human blood (≈50 mL) from male or female donors who had not received any aspirin or NSAIDs for 14 days was collected at two local area blood donor centers and placed in polypropylene syringes containing sodium heparin (20 units per mL blood, final concentration). The blood was transported to the laboratory on ice packs and used within 1.5 hours of collection. […]
Reply with the number and its unit after it.

Study these solved cases before continuing.
CS(=O)(=O)c1ccc(-c2cc3c(cc2Cc2cc(F)cc(F)c2)OCO3)cc1 [Example 15c] ... 85%
CS(=O)(=O)c1ccc(-c2cc3c(cc2Cc2cccnc2)OCO3)cc1 ... 10%
CS(=O)(=O)c1ccc(-c2cc3c(cc2Cc2ccccc2)OCO3)cc1 ... 50%

Req: So what's the measured COX-2 Inhibition (% at 10 μM) for this one? CS(=O)(=O)c1ccc(-c2cc3c(cc2C(=O)c2ccccc2F)OCO3)cc1
Resp: 90%

Req: So what's the measured COX-2 Inhibition (% at 10 μM) for this one? Cc1ccc(F)c(C(=O)c2cc3c(cc2-c2ccc(S(C)(=O)=O)cc2)OCO3)c1 [Example 14c]
Resp: 75%

Req: So what's the measured COX-2 Inhibition (% at 10 μM) for this one? CS(=O)(=O)c1ccc(-c2cc3c(cc2Cc2cccc(F)c2)OCO3)cc1
Resp: 90%

Req: So what's the measured COX-2 Inhibition (% at 10 μM) for this one? CS(=O)(=O)c1ccc(-c2cc(O)c(O)cc2Cc2cc(F)cc(F)c2)cc1 [Example 17e]
Resp: 25%

Req: So what's the measured COX-2 Inhibition (% at 10 μM) for this one? O=[N+]([O-])OCc1ccc(-c2cc3c(cc2Cc2cc(F)cc(F)c2)OCO3)cc1 [Example 23d]
Resp: 30%

Req: So what's the measured COX-2 Inhibition (% at 10 μM) for this one? Cc1cccc(C(=O)c2cc3c(cc2-c2ccc(S(C)(=O)=O)cc2)OCO3)c1 [Example 12c]
Resp: 90%

Req: So what's the measured COX-2 Inhibition (% at 10 μM) for this one? COc1cc(Cc2cc(F)cc(F)c2)c(-c2ccc(S(C)(=O)=O)cc2)cc1OC [Example 17d]
Resp: 20%

Req: So what's the measured COX-2 Inhibition (% at 10 μM) for this one? CS(=O)(=O)c1ccc(-c2cc3c(cc2Cc2ccccc2F)OCO3)cc1
Resp: 60%

Req: So what's the measured COX-2 Inhibition (% at 10 μM) for this one? CS(=O)(=O)c1ccc(-c2cc3c(cc2C(=O)c2cccc(CO[N+](=O)[O-])c2)OCO3)cc1 [Example 12d]
Resp: 20%

Req: So what's the measured COX-2 Inhibition (% at 10 μM) for this one? CS(=O)(=O)c1ccc(-c2cc3c(cc2Cc2cc(F)cc(F)c2)OC(C(=O)NCCO)CO3)cc1 (stereo not shown) [Example 18b]
Resp: 25%
